B1: STEAP1 (parent)
chain: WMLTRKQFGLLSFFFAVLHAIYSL

variants of: B1; test: protein stability index of a GFP-peptide fusion (GPS, HEK-293T) (PSI 1-6); higher = more stable; conditions: c terminus: a fixed tail appended;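 note: lentivirally expressed fusions sorted by FACS into six bins by GFP to DsRed ratio, PSI derived from sequencing read proportions per bin multiplied by bin number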
# protein stability index listing for each entry below
// print number alone

Worked cases, protein stability index given:
| VARIANT_SPEC | QUANTITATIVE_READOUT |
| --- | --- |
| A16C | 1.69 |
| H19P | 3.26 |
| R5S | 2.07 |

I am curious: what protein stability index value has been reported for L11C ?
1.48

I am curious: what protein stability index value has been reported for T4A ?
1.28

I am curious: what protein stability index value has been reported for S23L ?
1.27

I am curious: what protein stability index value has been reported for R5N ?
2.12
